- Tested on: C. krusei
- ASSAY TEXT: MIC
- Format: cell-based
- MEASUREMENT PARAMETERS: Pichia kudriavzevii; C. krusei; read-out: MIC
PROPERTY MEASURED: MIC (µg/mL)
Quick reminder: number only, in µg/mL, skip the unit.

# annotated cases, reported MIC shown
> print(dat)
                                   compound  test.system  property.measured  scale.unit   val
1  COc1ccc2c(Cc3ccc(C(C)C)cc3)c3[n+](cc2c1OC)CCc1cc2c(cc1-3)OCO2 [compound 63, 13-(4-i-propylbenzyl)berberine chloride]    C. krusei                MIC       µg/mL  3.12
2  COc1ccc2c(Cc3ccc(C(C)(C)C)cc3)c3[n+](cc2c1OC)CCc1cc2c(cc1-3)OCO2 [compound 62, 13-(4-t-butylbenzyl)berberine chloride]    C. krusei                MIC       µg/mL  3.12
3  COc1ccc2c(Cc3ccc(-c4ccccc4)cc3)c3[n+](cc2c1OC)CCc1cc2c(cc1-3)OCO2 [compound 35, 13-(4-phenylbenzyl)berberine chloride]    C. krusei                MIC       µg/mL  3.12

Below: the item to evaluate.
Lab note: compound CCCOc1cc2c(cc1OCCC)-c1cc3ccc(OCCC)c(OCCC)c3c[n+]1CC2 tested on C. krusei; recorded MIC was 1.56

---

The entries below come with measured MIC values attached.
- Test system: C. albicans IFO 1385
- ASSAY TEXT: MIC
- Assay type: cell-based, Candida albicans
- MEASUREMENT PARAMETERS: Candida albicans, IFO1385; C. albicans IFO 1385; read-out: MIC
Phrase the answer as number then unit, nothing more needed.

Check out these entries, answers already filled in.
> print(dat)
                                   compound         val
1  CCCOc1cc2c(cc1OCCC)-c1cc3ccc(OCCC)c(OCCC)c3c[n+]1CC2 [compound 85]  6.25 µg/mL
2  COc1cc(Cc2c3[n+](cc4c(OC)c(OC)ccc24)CCc2cc4c(cc2-3)OCO4)cc(OC)c1OC [compound 29]    25 µg/mL
3  COc1ccc2c(Cc3ccc(OC(F)(F)F)cc3)c3[n+](cc2c1OC)CCc1cc2c(cc1-3)OCO2 [compound 31]  3.12 µg/mL
4  COc1ccc2c(Cc3cccc(Oc4ccccc4)c3)c3[n+](cc2c1OC)CCc1cc2c(cc1-3)OCO2 [compound 58, 13-(3-phenoxybenzyl)berberine chloride]    25 µg/mL
5  COc1ccc2c(Cc3ccc(C(C)C)cc3)c3[n+](cc2c1OC)CCc1cc2c(cc1-3)OCO2 [compound 63, 13-(4-i-propylbenzyl)berberine chloride]  6.25 µg/mL

Continue with the next compound.
The recorded MIC for entry COc1ccc2c(Cc3ccc(C(C)(C)C)cc3)c3[n+](cc2c1OC)CCc1cc2c(cc1-3)OCO2 [compound 62, 13-(4-t-butylbenzyl)berberine chloride] equals 6.25 µg/mL

---

- Test system: Epidermophyton floccosum
- ASSAY TEXT: Antifungal efficacy of creamy formulation against local fungal skin infection
- Type: in vivo, mouse (SKH/1, hairless, male)
- MEASUREMENT PARAMETERS: 0.5% cream, topical, 5 day later
Kindly return 1.0 if reported Efficacy (%) 5 day later is no lower than 60%; return 0.0 if it is lower.

# example entries with known answers
> print(dat)
                                   molecule               test.system  category
1  COc1ccc2c(Cc3ccc(C(C)(C)C)cc3)c3[n+](cc2c1OC)CCc1cc2c(cc1-3)OCO2 [compound 62, 13-(4-t-butylbenzyl)berberine chloride]  Epidermophyton floccosum       1.0
2  CCCOc1cc2c(cc1OCCC)-c1cc3ccc(OCCC)c(OCCC)c3c[n+]1CC2  Epidermophyton floccosum       1.0
3  COc1ccc2c(Cc3ccc(C(C)C)cc3)c3[n+](cc2c1OC)CCc1cc2c(cc1-3)OCO2 [compound 63, 13-(4-i-propylbenzyl)berberine chloride]  Epidermophyton floccosum       1.0
4  C=Cc1ccc(Cc2c3[n+](cc4c(OC)c(OC)ccc24)CCc2cc4c(cc2-3)OCO4)cc1 [compound 60, 13-(4-vinylbenzyl)berberine chloride]  Epidermophyton floccosum       0.0
5  COc1cc(Cc2c3[n+](cc4c(OC)c(OC)ccc24)CCc2cc4c(cc2-3)OCO4)cc(OC)c1OC  Epidermophyton floccosum       0.0

# input for lookup
Input: Dear colleague, could you confirm whether COc1ccc2c(Cc3ccc(-c4ccccc4)cc3)c3[n+](cc2c1OC)CCc1cc2c(cc1-3)OCO2 [compound 35, 13-(4-phenylbenzyl)berberine chloride] has Efficacy (%) 5 day later at or above 60%?
Output: 1.0

---

- System: C. albicans KCTC 1940
- ASSAY TEXT: MIC
- Assay type: cell-based, Candida albicans
- MEASUREMENT PARAMETERS: Candida albicans, KCTC1940; C. albicans KCTC 1940; read-out: MIC
PROPERTY MEASURED: MIC (µg/mL)
Entry rule: numbers only, all in µg/mL.

> print(dat)
                                   molecule            test.system   val
1  C=Cc1ccc(Cc2c3[n+](cc4c(OC)c(OC)ccc24)CCc2cc4c(cc2-3)OCO4)cc1 [compound 60, 13-(4-vinylbenzyl)berberine chloride]  C. albicans KCTC 1940  6.25
2  CCCOc1cc2c(cc1OCCC)-c1cc3ccc(OCCC)c(OCCC)c3c[n+]1CC2  C. albicans KCTC 1940   0.4
3  COc1ccc2c(Cc3ccc(C)c(C)c3)c3[n+](cc2c1OC)CCc1cc2c(cc1-3)OCO2  C. albicans KCTC 1940  6.25
4  COc1ccc2c(Cc3ccc(C(C)(C)C)cc3)c3[n+](cc2c1OC)CCc1cc2c(cc1-3)OCO2 [compound 62, 13-(4-t-butylbenzyl)berberine chloride]  C. albicans KCTC 1940  0.78
5  COc1ccc2c(Cc3cccc(Oc4ccccc4)c3)c3[n+](cc2c1OC)CCc1cc2c(cc1-3)OCO2 [compound 58, 13-(3-phenoxybenzyl)berberine chloride]  C. albicans KCTC 1940  12.5

Reported MIC of COc1cc(Cc2c3[n+](cc4c(OC)c(OC)ccc24)CCc2cc4c(cc2-3)OCO4)cc(OC)c1OC : 1.56

Briefly, MIC measured for COc1cc2c(cc1OC)-c1c(Cc3ccc(C(C)(C)C)cc3)c3ccc(OC)c(OC)c3c[n+]1CC2 [compound 77, 13-(4-t-butylbenzyl)palmatine iodide] : 1.56

Reported MIC of COc1ccc2c(Cc3ccc(OC(F)(F)F)cc3)c3[n+](cc2c1OC)CCc1cc2c(cc1-3)OCO2 : 1.56

Measured MIC of COc1ccc2c(Cc3ccc(C(C)C)cc3)c3[n+](cc2c1OC)CCc1cc2c(cc1-3)OCO2 [compound 63, 13-(4-i-propylbenzyl)berberine chloride] : 1.56

Briefly, MIC measured for COc1ccc2c(Cc3ccc(-c4ccccc4)cc3)c3[n+](cc2c1OC)CCc1cc2c(cc1-3)OCO2 [compound 35, 13-(4-phenylbenzyl)berberine chloride] : 0.78

---

- Test system: C. albicans IFO 1385
- ASSAY TEXT: MIC
- Assay type: cell-based, Candida albicans
- MEASUREMENT PARAMETERS: Candida albicans, IFO1385; C. albicans IFO 1385; read-out: MIC
PROPERTY MEASURED: MIC (µg/mL)
Report the figure in µg/mL without appending any unit label.

Some entries whose results are on file:
> print(dat)
                                   molecule  property.measured  scale.unit   val
1  COc1ccc2c(Cc3ccc(-c4ccccc4)cc3)c3[n+](cc2c1OC)CCc1cc2c(cc1-3)OCO2 [compound 35, 13-(4-phenylbenzyl)berberine chloride]                MIC       µg/mL  6.25
2  COc1cc2c(cc1OC)-c1c(Cc3ccc(C(C)(C)C)cc3)c3ccc(OC)c(OC)c3c[n+]1CC2 [compound 77, 13-(4-t-butylbenzyl)palmatine iodide]                MIC       µg/mL  3.12
3  COc1ccc2c(Cc3ccc(C)c(C)c3)c3[n+](cc2c1OC)CCc1cc2c(cc1-3)OCO2                MIC       µg/mL  12.5

Here is another molecule to look at.
MIC reported for this molecule C=Cc1ccc(Cc2c3[n+](cc4c(OC)c(OC)ccc24)CCc2cc4c(cc2-3)OCO4)cc1 [compound 60, 13-(4-vinylbenzyl)berberine chloride] : 25

---

- Test system: Epidermophyton floccosum
- ASSAY TEXT: Antifungal efficacy of creamy formulation against local fungal skin infection
- Type: in vivo, mouse (SKH/1, hairless, male)
- MEASUREMENT PARAMETERS: 0.5% cream, topical, 0 day later
Measured Efficacy (%) 0 day later accompanies every entry in the list below.
Answer with a number only, understood to be in %.

> print(dat)
                                   molecule               test.system         property.measured  val
1  COc1ccc2c(Cc3ccc(-c4ccccc4)cc3)c3[n+](cc2c1OC)CCc1cc2c(cc1-3)OCO2 [compound 35, 13-(4-phenylbenzyl)berberine chloride]  Epidermophyton floccosum  Efficacy (%) 0 day later    0
2  COc1ccc2c(Cc3ccc(C(C)C)cc3)c3[n+](cc2c1OC)CCc1cc2c(cc1-3)OCO2 [compound 63, 13-(4-i-propylbenzyl)berberine chloride]  Epidermophyton floccosum  Efficacy (%) 0 day later    0

Here is another molecule to look at.
The recorded Efficacy (%) 0 day later for CCCOc1cc2c(cc1OCCC)-c1cc3ccc(OCCC)c(OCCC)c3c[n+]1CC2 is 0
